Value source: patent US10266495B2

Kindly state pIC50 for each of the entries shown.
# assayTarget: IDH1-R132H recombinant protein (Homo sapiens, UniProt O75874, R132H)
# Sequence (O75874 whole entry R132H): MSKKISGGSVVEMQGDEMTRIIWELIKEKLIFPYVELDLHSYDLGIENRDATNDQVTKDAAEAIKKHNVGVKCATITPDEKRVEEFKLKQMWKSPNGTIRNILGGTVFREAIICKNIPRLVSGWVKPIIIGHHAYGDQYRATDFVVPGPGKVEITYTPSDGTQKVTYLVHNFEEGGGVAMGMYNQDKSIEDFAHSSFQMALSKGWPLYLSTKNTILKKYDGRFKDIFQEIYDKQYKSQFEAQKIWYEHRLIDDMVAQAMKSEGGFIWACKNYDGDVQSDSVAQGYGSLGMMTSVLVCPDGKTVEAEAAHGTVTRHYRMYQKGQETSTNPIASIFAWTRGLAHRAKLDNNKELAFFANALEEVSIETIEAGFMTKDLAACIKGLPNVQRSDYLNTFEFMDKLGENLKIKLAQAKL
# assaySummary: IDH1-R132H enzymatic assay (NADPH consumption, diaphorase/resazurin readout)
# Type: biochemical
# testParameters: read-out: Enzyme IDH1 R132H IC50 Range
pIC50: −log10 of the molar value.

Incoming: // lookup pIC50 for COc1cc(NC(C)c2cc3cc(Cl)ccc3[nH]c2=O)ccc1C#N (racemic)
Outgoing: 7.00 to 8.00

Incoming: I'd like to know its pIC50. The compound in question is "COc1cc(NCc2cc3cc(Cl)c(OCCN4CCCC4)cc3[nH]c2=O)ccc1C#N"
Outgoing: 6.00 to 7.00

Incoming: Reported pIC50, compound "COc1cc(NCc2cc3cc(Cl)c(OCCc4ccccn4)cc3[nH]c2=O)ccc1C#N" : ____
Outgoing: 7.00 to 8.00

Incoming: Which measured pIC50 value corresponds to "COc1cc(NCc2cc3cc(Cl)ccc3[nH]c2=O)cc(OC)c1C#N" ?
Outgoing: 6.00 to 7.00

Incoming: // returns reported pIC50 for input "COc1cc(NCc2cc3cc(Cl)c(OC4CCN(C)CC4)cc3[nH]c2=O)ccc1C#N"
Outgoing: 7.00 to 8.00

Incoming: Fill blank: measured pIC50 of the compound "COc1cc(NCc2cc3cc(Cl)ccc3[nH]c2=O)ccc1S(C)(=O)=O" is ____.
Outgoing: < 6.00

Incoming: Fill blank: measured pIC50 of the compound "COc1cc(N[C@H](C)c2cc3cc(Cl)ccc3[nH]c2=O)ccc1C#N" is ____.
Outgoing: < 6.00

Incoming: Please look up its pIC50: "COc1cc(NCc2cc3cc(C)ccc3[nH]c2=O)ccc1C#N"
Outgoing: 6.00 to 7.00

---

# assayTarget: IDH1-R132H recombinant protein (Homo sapiens, UniProt O75874, R132H)
# assaySummary: IDH1-R132H enzymatic assay (NADPH consumption, diaphorase/resazurin readout)
# Type: biochemical
# testParameters: read-out: Enzyme IDH1 R132H IC50 Range
# Experimental: Assays were performed in a 384-well black plate. […] The IC50 of a given compound was calculated by fitting the dose response curve of inhibition of NADPH consumption at a given concentration with the four parameter logistic equation.
pIC50: −log10 of the molar value.
I'd be grateful if you could share measured pIC50 for these entries.

Incoming: pIC50 for "N#CCc1cccc(NCc2cc3cc(Cl)ccc3[nH]c2=O)c1" ?
Outgoing: < 6.00

Incoming: Given the entry "COc1cc(NCc2cc3cc(Cl)c(OCCc4ccncc4)cc3[nH]c2=O)ccc1C#N" , report its measured pIC50.
Outgoing: 7.00 to 8.00

Incoming: Which pIC50 is listed for COc1cc(NC(C)c2cc3cc(Cl)c(OCc4ccccn4)cc3[nH]c2=O)ccc1C#N (centres unmarked) ?
Outgoing: 7.00 to 8.00

Incoming: Recorded pIC50 of "COc1cc(NCc2cc3cc(Br)ccc3[nH]c2=O)ccc1C#N" , please.
Outgoing: 7.00 to 8.00

Incoming: Param item = "COc1cc(NCc2cc3cc(Cl)c(OC[C@H]4CCOC4)cc3[nH]c2=O)ccc1C#N" ; retrieve measured pIC50.
Outgoing: 7.00 to 8.00

Incoming: Query (molecule): "COc1cc(NCc2cc3cc(Cl)c(OCCN4CCS(=O)(=O)CC4)cc3[nH]c2=O)ccc1C#N" ; field requested: pIC50
Outgoing: 6.00 to 7.00

Incoming: Field request: pIC50 | item: "COc1cc(NCc2cc3cc(Cl)cc(C)c3[nH]c2=O)ccc1C#N"
Outgoing: 6.00 to 7.00

Incoming: Item "COc1cc(NCc2cc3cc(Cl)c(OCc4nccn4C)cc3[nH]c2=O)ccc1C#N" has what recorded pIC50?
Outgoing: 7.00 to 8.00

---

Would you mind telling me the reported IC50 of each entry?
# assayTarget: IDH1-R132C recombinant protein (Homo sapiens, UniProt O75874, R132C)
# Sequence (O75874 whole entry R132C): as the sequence (O75874 whole entry R132H) above, with H132C counted along it
# assaySummary: IDH1-R132C enzymatic assay (NADPH consumption, diaphorase/resazurin readout)
# testParameters: read-out: Enzyme IDH1 R132C IC50 Range

Incoming: For the molecule shown here, COc1cc(NCc2cc3cc(Cl)c(OCC4CCOCC4)cc3[nH]c2=O)ccc1C#N [Compound I-63] , give the reported IC50.
Outgoing: > 1 µM

Incoming: Quick check: IC50 of COc1cc(NCc2cc3cc(Cl)c(OCCN4CCN(C)CC4)cc3[nH]c2=O)ccc1C#N [Compound I-88] ?
Outgoing: > 1 µM

Incoming: Given the entry COc1cc(NCc2cc3cc(Cl)c(OCc4nc(C(N)=O)no4)cc3[nH]c2=O)ccc1C#N [Compound I-79] , report its measured IC50.
Outgoing: 0.1 to 1 µM

Incoming: Dear colleague, I am looking for the recorded IC50 of the following molecule: COc1cc(NCc2cc3cc(C(C)(C)C)ccc3[nH]c2=O)ccc1C#N [Compound I-24]
Outgoing: > 1 µM

Incoming: Fill in the blank: the reported IC50 of COc1cc(NCc2cc3cc(Cl)c(OCCn4ccnc4C)cc3[nH]c2=O)ccc1C#N [Compound I-90] is ____.
Outgoing: 0.1 to 1 µM

Incoming: Would you kindly share the measured IC50 for COc1cc(NC(C)c2cc3cc(Cl)c(OCc4ccccn4)cc3[nH]c2=O)ccc1C#N (centres unmarked) [Compound I-5] ?
Outgoing: 0.1 to 1 µM

Incoming: Returns the measured IC50 for the input molecule. Input: COc1cc(NCc2cc3cc(Cl)c(OCC(=O)N(C)C)cc3[nH]c2=O)ccc1C#N [Compound I-67]
Outgoing: > 1 µM

Incoming: Record request: IC50 value, item COc1cc(NCc2cc3cc(Cl)ccc3[nH]c2=O)ccc1-n1cnnn1 [Compound I-33]
Outgoing: > 1 µM

---

Hi there, I'd appreciate the recorded pIC50 for every entry that follows.
# assayTarget: IDH1-R132C recombinant protein (Homo sapiens, UniProt O75874, R132C)
# assaySummary: IDH1-R132C enzymatic assay (NADPH consumption, diaphorase/resazurin readout)
# testParameters: read-out: Enzyme IDH1 R132C IC50 Range
pIC50: −log10 of the molar value.

Incoming: Given COc1cc(NCc2cc3cc(Cl)c(OCc4ccncc4)cc3[nH]c2=O)ccc1C#N [Compound I-74] , state its recorded pIC50.
Outgoing: < 6.00

Incoming: Endpoint output: pIC50 of COc1cc(NCc2cc3cc(Cl)c(OCCn4nc(C)cc4C)cc3[nH]c2=O)ccc1C#N [Compound I-92] . Value?
Outgoing: < 6.00

Incoming: Returns the measured pIC50 for the input compound. Input: COc1cc(NCc2cc3cc(Cl)c(OCCN4CCCCC4)cc3[nH]c2=O)ccc1C#N [Compound I-87]
Outgoing: < 6.00

Incoming: Given the entry COc1cc(NCc2cc3ccc(O)cc3[nH]c2=O)ccc1C#N [Compound I-30] , report its measured pIC50.
Outgoing: < 6.00

Incoming: GET /values?readout=pIC50&item= COc1cc(NCc2cc3cc(Cl)c(OCCN(C)C)cc3[nH]c2=O)ccc1C#N [Compound I-61]
Outgoing: < 6.00

Incoming: GET /values?readout=pIC50&item= COc1cc(NCc2cc3cc(Cl)c(OCCN4CCOCC4)cc3[nH]c2=O)ccc1C#N [Compound I-60]
Outgoing: 6.00 to 7.00

Incoming: pIC50 for COc1cc(NCc2cc3cc(F)ccc3[nH]c2=O)ccc1C#N [Compound I-27] ?
Outgoing: < 6.00

Incoming: Quick one: pIC50 of COc1cc(NCc2cc3cc(Cl)c(OCc4cncn4C)cc3[nH]c2=O)ccc1C#N [Compound I-77] ?
Outgoing: 6.00 to 7.00

Incoming: Any idea what its pIC50 is? The compound is COc1cc(NCc2cc3cc(Cl)c(OCCN4CCCC4=O)cc3[nH]c2=O)ccc1C#N [Compound I-86]
Outgoing: < 6.00

Incoming: Please report the recorded pIC50 for N#Cc1ccc(NCc2cc3cc(Cl)ccc3[nH]c2=O)cc1OC(F)(F)F [Compound I-10] .
Outgoing: < 6.00

Incoming: Dear colleague, I am looking for the recorded pIC50 of the following compound: COc1cc(NCc2cc3cc(Cl)c(OCC4CCCCN4C)cc3[nH]c2=O)ccc1C#N (stereo not shown) [Compound I-72]
Outgoing: < 6.00

Incoming: Field request: pIC50 | item: COc1cc(NCc2cc3cc(Cl)c(OCc4ccccc4)cc3[nH]c2=O)ccc1C#N [Compound I-71]
Outgoing: < 6.00

Incoming: Return reported pIC50; argument: COc1cc(NCc2cc3ccc(C)cc3[nH]c2=O)ccc1-n1cnnn1 [Compound I-22]
Outgoing: < 6.00

---

Please provide measured IC50 for the entries that follow.
# assayTarget: IDH1-R132H recombinant protein (Homo sapiens, UniProt O75874, R132H)
# assaySummary: IDH1-R132H enzymatic assay (NADPH consumption, diaphorase/resazurin readout)
# Type: biochemical

Incoming: Would you kindly share the measured IC50 for N#Cc1ccc(NCc2cc3cc(Cl)ccc3[nH]c2=O)cc1C(F)(F)F [Compound I-35] ?
Outgoing: 100 to 1000 nM

Incoming: Which IC50 value belongs to N#Cc1ccc(NCc2cc3cc(Cl)ccc3[nH]c2=O)cc1F [Compound I-37] ?
Outgoing: 100 to 1000 nM
